Test system: SK-OV-3 ovarian
assayExplanation: NCI-60 one-dose screen, 48 h (100 = growth as untreated, 0 = no growth, -100 = all killed)
runParameters: 10 µM
Compounds without any hit were thinned out: in the full panel of roughly 83,000, 20% have a hit.
measurementLabel: growth (%)
Reply with just the number (in %).

Reported growth for `N#Cc1c(-c2ccc(Cl)cc2)cc(-c2ccccc2)nc1OCc1ccccc1` was 83.1

Reported growth for `O=C1c2ccccc2C(=O)c2c1c(C(=O)c1ccc(Cl)cc1)n1c2ccc2c3ccccc3ccc21` was 95

Reported growth for O=C(c1ccc(O)cc1)C1[C@H](c2ccc(Br)cc2)[C@@H](c2ccccc2)NC12C(=O)Nc1ccccc12 (stereo not given in full) was 77.3

Reported growth for `NS(=O)(=O)c1ccc(N=Nc2c(O)n(CC(=O)Nc3ccccc3Br)c3ccccc23)cc1` was 41.5

Reported growth for `CN1CCN(c2ccc(Nc3nc(N4CCN(S(=O)(=O)c5ccc(F)cc5)CC4)c4sccc4n3)cc2)CC1` was -87.2

---

Test system: MDA-MB-231 breast
assayExplanation: NCI-60 one-dose screen, 48 h
runParameters: 10 µM
Compounds without any hit were thinned out: in the full panel of roughly 83,000, 20% have a hit. The source made the active and inactive calls. The calls were made as follows: active = growth percent below 10; inactive = the rest.
Pick from 1.0 (active), 0.0 (inactive) when you respond.

What outcome does the record of this test show for `O=c1oc2ccc(-c3ccc(F)cc3F)cc2c(=O)n1-c1ccc(Cl)c(C(F)(F)F)c1` ?
1.0

What outcome does the record of this test show for COC1CC(Cn2cc(COc3ccc4ccc(=O)oc4c3)nn2)C(OCc2ccccc2)C(OCc2ccccc2)C1OCc1ccccc1 (stereo unspecified) ?
0.0

What outcome does the record of this test show for `C/C(=N\NC(N)=S)c1ccc(Nc2nc(SC(C)C)nc(-c3ccccc3)c2C#N)cc1` ?
0.0

What outcome does the record of this test show for `COc1cccc(/C=C2\N=C(C)N(CCc3ccc(S(N)(=O)=O)cc3)C2=O)c1` ?
0.0

What outcome does the record of this test show for `Cc1ccc(-c2cc(C(=O)N=Nc3c(O)[nH]c4ccc(Br)cc34)c3ccccc3n2)cc1` ?
0.0

What outcome does the record of this test show for `CN1CCCN(Cc2ccc(C(=O)Nc3cccc(Nc4ccc5c(O)cccc5n4)c3)cc2C(F)(F)F)CC1` ?
1.0

What outcome does the record of this test show for `COc1nccnc1NS(=O)(=O)c1ccc(NC2=C(Cl)C(=O)c3nc(C)ccc3C2=O)cc1` ?
0.0

What outcome does the record of this test show for `O=c1oc2ccc(-c3ccc(F)cc3F)cc2c(=O)n1-c1ccc(F)c(Cl)c1` ?
1.0

What outcome does the record of this test show for `O=C(NO)c1ccc(CNc2nc(-c3ccccc3)c3ccccc3n2)cc1` ?
1.0

What outcome does the record of this test show for `COc1csc(/C=N/NC(=O)c2[nH]c3ccc(Br)cc3c2-c2ccccc2)c1` ?
1.0

What outcome does the record of this test show for `CC(=O)Nc1ccc(-c2cn(-c3cccc(C(=O)Nc4ccc(F)c(C(F)(F)F)c4)c3)nn2)cn1` ?
1.0

What outcome does the record of this test show for `Cc1ccc(/C=C/C(=O)c2ccc(S(=O)(=O)NCCNc3nc(Nc4ccc(F)cc4)nc(N(C)C)n3)cc2)cc1` ?
0.0

What outcome does the record of this test show for `Nc1cc(-c2cccc(C(=O)NCc3ccc4c(c3)OCO4)c2)ccn1` ?
0.0

What outcome does the record of this test show for `O=c1[nH]c2ccccc2cc1CSc1ccc(Nc2nccc(-c3ccc(Cl)cc3)n2)cc1` ?
1.0

What outcome does the record of this test show for `O=C1Nc2ccc(Cl)cc2/C1=C/c1ccc(OCc2ccccn2)cc1` ?
0.0

What outcome does the record of this test show for `CC1=N/C(=C\c2ccc(N(C)C)cc2)C(=O)N1CCc1ccc(S(N)(=O)=O)cc1` ?
0.0

What outcome does the record of this test show for CC1(c2ccccc2)NC(=O)N(CC(=O)Nc2ccc(C(=O)/C=C/c3ccc(Br)cc3)cc2)C1=O (stereo unspecified) ?
0.0

What outcome does the record of this test show for CC1(c2ccccc2)NC(=O)N(CC(=O)Nc2ccc(C(=O)/C=C/c3ccccc3)cc2)C1=O (stereo unspecified) ?
0.0

What outcome does the record of this test show for `C=C(C)[C@@H]1CC[C@]2(C(=O)OC)CC[C@]3(C)[C@H](CC[C@@H]4[C@@]5(C)CC[C@H](N)C(C)(C)[C@@H]5CC[C@]43C)[C@@H]12` ?
1.0

What outcome does the record of this test show for `Cc1noc2c(Cc3ccccc3)nn(CC(=O)N/N=C/c3ccc(Br)cc3)c(=O)c12` ?
0.0

What outcome does the record of this test show for `COc1ccc(-c2nc(S(=O)(=O)c3ccccc3)c(S(C)(=O)=O)o2)cc1` ?
1.0

What outcome does the record of this test show for `COc1ccc(C(C)=C(c2ccc(OCCCN(C)C)cc2)c2ccc(OCCCN(C)C)cc2)cc1` ?
1.0

What outcome does the record of this test show for `N#Cc1ccc(-c2nn(-c3ccc(C(=O)O)cc3)cc2CNc2cc(Cl)cc(C(F)(F)F)c2)cc1` ?
0.0

What outcome does the record of this test show for `CCCCCc1ccc(S(=O)(=O)Nc2cc(-c3csc(N(C)C(C)=O)n3)ccc2N2CCN(C)CC2)cc1` ?
1.0

What outcome does the record of this test show for `Cc1noc2c(Cc3ccccc3)nn(CC(=O)N/N=C/c3ccc(F)cc3)c(=O)c12` ?
0.0

What outcome does the record of this test show for `CC(=C(c1ccc(OCCCN(C)C)cc1)c1ccc(OCCCN(C)C)cc1)c1ccccc1` ?
1.0

What outcome does the record of this test show for `CC(=O)Nc1ccc(-n2cnc3cc(-c4ccc(NS(C)(=O)=O)cc4)ccc32)cc1` ?
0.0

What outcome does the record of this test show for `O=C(Nc1ccc(I)cc1F)c1cc(-c2ccc(F)cc2F)ccc1O` ?
1.0

What outcome does the record of this test show for `N#Cc1c(NC(=O)c2ccc(C(F)(F)F)cc2)sc2c1CCC(O)=C2` ?
0.0

What outcome does the record of this test show for CN1C(=O)N(C)C2SC(N/N=C/c3ccc(F)cc3)=NC21 (stereo unspecified) ?
0.0

What outcome does the record of this test show for `O=C1Nc2cc(-c3ccc(NC(=O)c4cccs4)cc3)ccc2/C1=C/c1ccc[nH]1` ?
0.0

What outcome does the record of this test show for `O=C(CSc1nnc(-c2c[nH]c3ccccc23)n1-c1ccccc1)Nc1ccc(C(=O)/C=C/c2ccccc2Cl)cc1` ?
0.0

What outcome does the record of this test show for `COc1ccc2nc(Nc3cccc(NC(=O)c4ccc(CN5CCN(C)CC5)c(C(F)(F)F)c4)c3)ccc2c1` ?
1.0

What outcome does the record of this test show for C=C[C@H]1[C@H](O[C@@H]2OC(CO)[C@@H](O)[C@H](O)C2OC(=O)c2c(O)cc(O)cc2-c2cccc(O)c2)OC=C2C(=O)OCC[C@H]21 (stereo partly specified) ?
0.0

What outcome does the record of this test show for O=C1CCC(N2Cc3cc(NC(=O)COc4ccccc4)ccc3C2=O)C(=O)N1 (stereo unspecified) ?
0.0

What outcome does the record of this test show for COC(=O)CC1CC1C1Cc2c(nc(N(C)S(C)(=O)=O)nc2C(C)C)-c2ccc(F)cc21 (stereo unspecified) ?
0.0
